- tgt: T1, human IFNAR-1 protein (form not stated) (human, UniProt P17181 28-436, limits assumed)
- T1 construct: bispecific ELISA
- T1 sequence (looked up): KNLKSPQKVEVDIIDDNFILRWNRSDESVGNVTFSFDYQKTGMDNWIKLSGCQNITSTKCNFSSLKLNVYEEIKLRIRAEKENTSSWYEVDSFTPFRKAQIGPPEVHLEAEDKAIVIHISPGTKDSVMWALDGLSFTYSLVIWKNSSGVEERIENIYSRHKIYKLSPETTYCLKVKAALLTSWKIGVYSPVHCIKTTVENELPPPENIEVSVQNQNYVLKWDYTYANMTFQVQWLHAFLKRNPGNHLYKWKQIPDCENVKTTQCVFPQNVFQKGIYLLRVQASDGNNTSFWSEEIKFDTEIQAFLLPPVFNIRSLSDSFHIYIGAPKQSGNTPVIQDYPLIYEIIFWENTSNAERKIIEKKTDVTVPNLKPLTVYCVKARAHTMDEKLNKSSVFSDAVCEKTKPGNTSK
- assayExplanation: affinity measurement of purified IgG at different concentrations (method not named)
assayReadout: kon

{"columns": ["binder", "assayReadout", "reading"],
 "data": [
  ["485G10-H1L2 (antibody, V domains shown, Humanized IgG expressed in HEK293; also called VH1 + VL2 (485G10)) VH: QVQLVQSGAEVKKPGASVKVSCKASGFNIKDYYIHWVRQAPGQGLEWMGRIDPEDAETKYAPKFQGRVTMTADTSISTAYMELSRLRSDDTVVYYCARYHGYWALDYWGQGTLVTVSS VL: DIQMTQSPSSLSTSVGDRVTITCKTSQNVGTNVAWYQQKPGKAPKPLIYSTSYRYSGVPSRFSGSGSGTDFTLTISSLQPEDFATYYCHQYFSYPYTFGPGTKVDIK", "kon", "207000 M⁻¹ s⁻¹"],
  ["485G10-H1L3 (antibody, V domains shown, Humanized IgG expressed in HEK293; also called VH1 + VL3 (485G10)) VH: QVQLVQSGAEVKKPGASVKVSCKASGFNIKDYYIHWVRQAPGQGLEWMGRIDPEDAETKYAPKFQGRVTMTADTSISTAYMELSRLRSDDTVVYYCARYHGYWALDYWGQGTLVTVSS VL: DIQMTQSPSSLSTSVGDRVTITCKTSQNVGTNVAWYQQKPGKAPKPLIYSTSYRYSGVPSRFSGSGSGTDFTLTISSVQPEDFATYYCHQYFSYPYTFGPGTKLDIK", "kon", "187000 M⁻¹ s⁻¹"],
  ["485G10-H1L4 (antibody, V domains shown, Humanized IgG expressed in HEK293; also called VH1 + VL4 (485G10)) VH: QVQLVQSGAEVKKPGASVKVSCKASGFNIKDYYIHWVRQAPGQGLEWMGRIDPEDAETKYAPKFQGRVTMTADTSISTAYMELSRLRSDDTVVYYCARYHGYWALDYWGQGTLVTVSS VL: DIQMTQSPSSLSTSVGDRVTVTCKTSQNVGTNVAWYQQKPGKAPKPLIYSTSYRYSGVPSRFSGSGSGTDFTLTISSVQPEDFATYYCHQYFSYPYTFGPGTKLDIK", "kon", "196000 M⁻¹ s⁻¹"],
  ["485G10-H2L3 (antibody, V domains shown, Humanized IgG expressed in HEK293; also called VH2 + VL3 (485G10)) VH: QVQLVQSGAEVKKPGASVKLSCKASGFNIKDYYIHWVKQAPGQGLEWIGRIDPEDAETKYAPKFQGRVTMTADTSISTAYMELSRLRSDDTVVYYCGRYHGYWALDYWGQGTLVTVSS VL: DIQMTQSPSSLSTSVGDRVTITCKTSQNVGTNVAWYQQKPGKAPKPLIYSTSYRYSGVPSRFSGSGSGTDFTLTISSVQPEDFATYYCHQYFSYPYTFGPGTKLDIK", "kon", "186000 M⁻¹ s⁻¹"]
]}
